For each entry below, report its Corn borer Mortality (%) value.
Test system: corn borers
Details: concentration 600 mg/kg
Enter your answer as a number in %; do not include the unit.

Read the entry CCCCCCCC=NNC(=O)[C@@H]1Cc2c([nH]c3ccccc23)[C@H](C)N1 and write its reported Corn borer Mortality (%).
50

Read the entry C[C@@H]1N[C@H](C(=O)NN=Cc2ccc3c(c2)OCO3)Cc2c1[nH]c1ccccc21 and write its reported Corn borer Mortality (%).
15

Read the entry C[C@@H]1N[C@H](C(=O)NNC(=O)c2ccccc2)Cc2c1[nH]c1ccccc21 and write its reported Corn borer Mortality (%).
15

Read the entry CCOC(=O)C1Cc2c([nH]c3ccccc23)CN1 (stereo not shown) and write its reported Corn borer Mortality (%).
10

----------
Tested on: cotton bollworms
Assay: whole plant or invertebrate
Details: Helicoverpa armigera, in Gossypium hirsutum, read-out: Cotton bollworm Mortality (%)
For each entry below, report its mortality at 600 mg/kg value.
Please append the unit to your numeric answer.

Read the entry O=C(O)[C@@H]1Cc2c([nH]c3ccccc23)[C@H](c2ccccc2)N1 [Ib-5] and write its reported mortality at 600 mg/kg.
30%

Read the entry C[C@@H]1N[C@H](C(=O)NC2CCCCC2)Cc2c1[nH]c1ccccc21 [Ib-17] and write its reported mortality at 600 mg/kg.
30%

Read the entry C[C@@H]1N[C@H](C(=O)NNC(=O)c2cccc3nnsc23)Cc2c1[nH]c1ccccc21 [Id-1] and write its reported mortality at 600 mg/kg.
15%

Read the entry C[C@@H]1N[C@H](C(=O)NN)Cc2c1[nH]c1ccccc21 [Ib-15] and write its reported mortality at 600 mg/kg.
20%

Read the entry C[C@@H]1N[C@H](C(=O)N/N=C/c2ccccc2)Cc2c1[nH]c1ccccc21 [Ic-1] and write its reported mortality at 600 mg/kg.
55%

Read the entry CC1NCCc2c1[nH]c1ccccc21 (stereo not shown) [Tetrahydroharmane] and write its reported mortality at 600 mg/kg.
15%

Read the entry C[C@@H]1N[C@H](C(=O)NCN(C)C)Cc2c1[nH]c1ccccc21 [Ib-19] and write its reported mortality at 600 mg/kg.
60%

Read the entry CCOC(=O)[C@@H]1Cc2c([nH]c3ccccc23)[C@H](C)N1 [Ib-13] and write its reported mortality at 600 mg/kg.
30%

Read the entry Cc1nccc2c1[nH]c1c([N+](=O)[O-])cccc12 [Ia-4] and write its reported mortality at 600 mg/kg.
10%

Read the entry Cc1nccc2c1[nH]c1cc(O)ccc12 [Harmol] and write its reported mortality at 600 mg/kg.
20%

----------
System: Fusarium fujikuroi
Assay: Fungicidal (bactericidal) activity in vitro, PDA colony diameter
Assay type: cell-based
Conditions: 50 mg/kg
For each entry below, report its Bactericidal activity (%) Fusarium fujikuroi value.
Enter your answer as a number in %; do not include the unit.

GET Bactericidal activity (%) Fusarium fujikuroi | system: Fusarium fujikuroi | item: C[C@@H]1N[C@H](C(=O)NNC(=O)c2ccccc2)Cc2c1[nH]c1ccccc21 [Id-4]
29.4

GET Bactericidal activity (%) Fusarium fujikuroi | system: Fusarium fujikuroi | item: C[C@@H]1N[C@H](C(=O)NN=C2CCCCC2)Cc2c1[nH]c1ccccc21 [Ic-29]
29.4

GET Bactericidal activity (%) Fusarium fujikuroi | system: Fusarium fujikuroi | item: C[C@@H]1N[C@H](C(=O)NCCO)Cc2c1[nH]c1ccccc21 [Ib-18]
35.7

GET Bactericidal activity (%) Fusarium fujikuroi | system: Fusarium fujikuroi | item: C[C@@H]1N[C@H](C(=O)NN=Cc2ccc3c(c2)OCCO3)Cc2c1[nH]c1ccccc21 [Ic-13]
47.1

----------
For each entry below, report its Relative inhibition rate (%) In vivo therapy value.
System: tobacco mosaic virus (TMV)
Experiment: Anti-TMV in vivo therapeutic effect
Set-up: species or system tobacco mosaic virus (host Nicotiana tabacum L.cv.Xanthi NN)
Settings: treatment dose 500 μg/mL
Enter your answer as a number in %; do not include the unit.

Read the entry C[C@@H]1N[C@H](C(=O)NN=Cc2ccc(N(C)C)cc2)Cc2c1[nH]c1ccccc21 and write its reported Relative inhibition rate (%) In vivo therapy.
60.4

Read the entry C[C@@H]1N[C@H](C(=O)NN=Cc2ccc(Cl)c(Cl)c2)Cc2c1[nH]c1ccccc21 and write its reported Relative inhibition rate (%) In vivo therapy.
48.9

Read the entry O=C(O)[C@@H]1Cc2c([nH]c3ccccc23)[C@H](c2cccnc2)N1 and write its reported Relative inhibition rate (%) In vivo therapy.
21.4

Read the entry CC(=O)Oc1ccc2c(c1)[nH]c1c(C)nccc12 and write its reported Relative inhibition rate (%) In vivo therapy.
24.1

Read the entry C[C@@H]1N[C@H](C(=O)NN=Cc2ccncc2)Cc2c1[nH]c1ccccc21 and write its reported Relative inhibition rate (%) In vivo therapy.
39.6

Read the entry CCCC=NNC(=O)[C@@H]1Cc2c([nH]c3ccccc23)[C@H](C)N1 and write its reported Relative inhibition rate (%) In vivo therapy.
41.3

Read the entry Cc1nc(/C=C/C(=O)O)cc2c1[nH]c1ccccc12 and write its reported Relative inhibition rate (%) In vivo therapy.
21.5

Read the entry C[C@@H]1N[C@H](C(=O)NN=Cc2ccc3cc(O)ccc3c2)Cc2c1[nH]c1ccccc21 and write its reported Relative inhibition rate (%) In vivo therapy.
43.9

Read the entry CCOC(=O)[C@@H]1Cc2c([nH]c3ccccc23)CN1 and write its reported Relative inhibition rate (%) In vivo therapy.
30.7

Read the entry C[C@@H]1N[C@H](C(=O)NN=Cc2cccnc2)Cc2c1[nH]c1ccccc21 and write its reported Relative inhibition rate (%) In vivo therapy.
36.9

Read the entry C[C@@H]1N[C@H](C(=O)NN=Cc2ccc(Cl)cc2Cl)Cc2c1[nH]c1ccccc21 and write its reported Relative inhibition rate (%) In vivo therapy.
60.4

Read the entry C[C@@H]1N[C@H](C(=O)NN=C2CCCCC2)Cc2c1[nH]c1ccccc21 and write its reported Relative inhibition rate (%) In vivo therapy.
41.9

----------
Tested on: Macrophoma kawatsukai
Assay: Fungicidal (bactericidal) activity in vitro, PDA colony diameter
Format: cell-based
Conditions: 50 mg/kg
So basically, the class depends on measured Bactericidal activity (%) Macrophoma kawatsukai, and the ranges are low end: < 50%; middle: ≥ 50% and < 70%; high end: ≥ 70%

Class? Entry: C[C@@H]1N[C@H](C(=O)NN=Cc2ccc(C(C)(C)C)cc2)Cc2c1[nH]c1ccccc21
high end

Class? Entry: Cc1nnsc1C(=O)NNC(=O)[C@@H]1Cc2c([nH]c3ccccc23)[C@H](C)N1
low end

Class? Entry: CC(=NNC(=O)[C@@H]1Cc2c([nH]c3ccccc23)[C@H](C)N1)C(C)(C)C
low end

Class? Entry: C[C@@H]1N[C@H](C(=O)NN=Cc2cccnc2)Cc2c1[nH]c1ccccc21
high end

Class? Entry: O=C(O)/C=C/c1cc2c([nH]c3ccccc32)c(-c2cccnc2)n1
low end

Class? Entry: C[C@@H]1N[C@H](C(=O)NN=Cc2cccs2)Cc2c1[nH]c1ccccc21
middle

Class? Entry: Cc1nc(/C=C/C(=O)O)cc2c1[nH]c1ccccc12
low end

Class? Entry: CCOC(=O)[C@@H]1Cc2c([nH]c3ccccc23)[C@H](CC)N1
middle

Class? Entry: C[C@@H]1N[C@H](C(=O)NN=Cc2ccc([N+](=O)[O-])cc2)Cc2c1[nH]c1ccccc21
high end

Class? Entry: COc1ccccc1C=NNC(=O)[C@@H]1Cc2c([nH]c3ccccc23)[C@H](C)N1
high end

Class? Entry: C[C@@H]1N[C@H](C(=O)NN=Cc2ccc3c(c2)OCO3)Cc2c1[nH]c1ccccc21
middle

Class? Entry: CCOC(=O)[C@H]1Cc2c([nH]c3ccccc23)[C@@H](C)N1
middle

Class? Entry: CCOC(=O)C1Cc2c([nH]c3ccccc23)CN1 (centres unmarked)
low end

Class? Entry: C[C@@H]1N[C@H](C(=O)NN=CC2CCCCC2)Cc2c1[nH]c1ccccc21
low end

Class? Entry: C[C@@H]1N[C@H](C(=O)NN=Cc2ccc(Cl)c(Cl)c2)Cc2c1[nH]c1ccccc21
high end

Class? Entry: Cc1nccc2c1[nH]c1cc(OC(=O)N(C)C)ccc12
low end

Class? Entry: Cc1nccc2c1[nH]c1cc(OC(=O)C(C)(C)C)ccc12
high end

Class? Entry: O=C(O)/C=C/c1cc2c([nH]c3ccccc32)c(-c2cccs2)n1
middle

Class? Entry: C[C@@H]1N[C@H](C(=O)NN=C2CCCCC2)Cc2c1[nH]c1ccccc21
low end

Class? Entry: C[C@@H]1N[C@H](C(=O)NN=Cc2ccncc2)Cc2c1[nH]c1ccccc21
middle

Class? Entry: COc1ccc(C=NNC(=O)[C@@H]2Cc3c([nH]c4ccccc34)[C@H](C)N2)cc1OC
middle

Class? Entry: C/C=C/C=NNC(=O)[C@@H]1Cc2c([nH]c3ccccc23)[C@H](C)N1
middle

Class? Entry: C[C@@H]1N[C@H](C(=O)NN=Cc2ccc[nH]2)Cc2c1[nH]c1ccccc21
high end

Class? Entry: COc1ccc(C=NNC(=O)[C@@H]2Cc3c([nH]c4ccccc34)[C@H](C)N2)cc1
high end

Class? Entry: CCCCCC(=O)NNC(=O)[C@@H]1Cc2c([nH]c3ccccc23)[C@H](C)N1
middle

Class? Entry: CC(=O)Oc1ccc2c(c1)[nH]c1c(C)nccc12
low end

Class? Entry: C[C@@H]1N[C@H](C(=O)NNC(=O)C2CCCC2)Cc2c1[nH]c1ccccc21
low end
